target-under-test: Beta-ketoacyl-[acyl-carrier-protein] synthase III (Enterococcus faecalis (strain ATCC 700802 / V583), UniProt Q820T1)
Sequence (Q820T1 whole entry): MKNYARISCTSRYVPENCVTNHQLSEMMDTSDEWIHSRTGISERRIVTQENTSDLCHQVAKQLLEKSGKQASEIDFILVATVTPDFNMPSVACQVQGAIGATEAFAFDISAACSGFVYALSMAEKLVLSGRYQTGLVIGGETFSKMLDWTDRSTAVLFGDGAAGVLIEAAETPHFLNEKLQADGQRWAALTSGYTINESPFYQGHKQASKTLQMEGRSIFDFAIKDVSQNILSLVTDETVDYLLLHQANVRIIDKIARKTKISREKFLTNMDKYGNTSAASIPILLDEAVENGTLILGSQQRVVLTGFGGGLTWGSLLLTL
test-protocol: Inhibitory concentration against Enterococcus faecalis beta-Ketoacyl-acyl carrier protein synthase III
experimental-endpoint: IC50 (nM)

// solved cases for IC50 follow
O=C(O)c1ccc(Oc2cccc(C(=O)Nc3ccccc3C(=O)O)c2)cc1    4400
CCN(CC)S(=O)(=O)c1cc(C(=O)Nc2ccccc2C(=O)O)ccc1-c1ccccc1    1600
CC1CN(c2ccc(C(=O)Nc3ccccc3C(=O)O)cc2Oc2ccccc2)CC(C)N1 (stereo not given)    38000

[a] O=C(Nc1ccccc1C(=O)O)c1ccc(-c2cccc(OC(F)(F)F)c2)c(Oc2ccccc2)c1
[b] O=C(Nc1ccccc1C(=O)O)c1cccc(Oc2ccccc2)c1
Query: Param metric = IC50; output whichever of a , b has the minimum value. Indicate your choice by writing its label.
Reply: a
(a: 470 nM, b: 2700 nM)
